Listed below: IC50 of pseudo virus neutralization H5N1 VN/04 values for each entry.
molecular target: full-length H5 A/Vietnam/1203/2004 HA expressed on 293T cells (influenza A virus A/Vietnam/1203/2004 (H5N1)); assay: cell-based or functional assay

{"columns": ["binder", "result"],
 "data": [
  ["S45 (antibody, V domains shown) VH: EVQLVESGGGLVQPGGSLRLSCAASGFTINGSSIHWVRQAPGKGLEWVAYIGPFGGSTYYADSVKGRFTISADTSKNTAYLQMNSLRAEDTAVYYCARFWHGYNLYMDYWGQGTLVTVSS VL: DIQMTQSPSSLSASVGDRVTITCRASQDVGWWVAWYQQKPGKAPKLLIYGARFLYSGVPSRFSGSGSGTDFTLTISSLQPEDFATYYCQQYFNGPLTFGQGTKVEIKR", "> 200 mg/L"]
]}

Consider now this further binder.
Just so you know, measured IC50 of pseudo virus neutralization H5N1 VN/04 for C05 (antibody, V domains shown) VH: PVQLQESGGGLVQPGESLRLSCVGSGSSFGESTLSYYAVSWVRQAPGKGLEWLSIINAGGGDIDYADSVEGRFTISRDNSKETLYLQMTNLRVEDTGVYYCAKHMSMQQVVSAGWERADLVGDAFDVWGQGTMVTVSS VL: DIQLTQSPSSLSASVGDRVTLTCQASQDIRKFLNWYQQKPGKGPKLLIYDASNLQRGVPSRFSGGGSGTDFTLIISSLQPEDVGTYYCQQYDGLPFTFGGGTKVEIKR came out at > 200 mg/L
